The values you see were collected from PubChem BioAssay (NCI).

For each entry below, report its TGI value.
System: SF-295 CNS
Assay: NCI tumour cell line growth inhibition, 48 h

Exam item: Param readout = TGI; param system = SF-295 CNS; param query = `CCCCn1c2ccccc2c2ccc3c(c21)C(=O)C=CC3=O` ; response: value
Marked response: > 100 µM

Exam item: // next record `COc1ccc(CNc2nc3cc(C(F)(F)F)ccc3nc2-c2ccccc2)cc1OC`
Marked response: > 100 µM

Exam item: How about `N=c1oc2ccccc2cc1-c1nc2ccccc2c(=O)[nH]1` ?
Marked response: > 100 µM

Exam item: Same for `CCOC(=O)C1=C(Nc2ccc(Br)cc2)OC/C1=N\NC(=O)c1ccccc1O`
Marked response: > 100 µM

Exam item: Param item: `FC(F)(F)c1cccc2c(SCCc3n[nH]c(=S)o3)ccnc12`
Marked response: > 100 µM

Exam item: Try `O=C(C(Cl)=C(N1CCCCC1)N1CCCCC1)C(Cl)Cl` next.
Marked response: > 100 µM

Exam item: Input `Cc1ccc2c(C(=O)c3c(C)n(CCN4CCOCC4)c4ccccc34)cccc2c1`
Marked response: 37.1 µM

Exam item: Repeat with `NCCCN1CCN(CCCNc2nc3ccccc3c3[nH]c4ccccc4c23)CC1`
Marked response: 1.83 µM

Exam item: Now give it for `O=C(COc1cccc(/C=C2\Oc3ccc4ccccc4c3C2=O)c1)c1ccc(Cl)cc1` too.
Marked response: > 100 µM

Exam item: Item: `CS/C(c1ccccc1)=[N+](\[O-])Cc1ccccc1`
Marked response: > 100 µM

Exam item: Another molecule to check: CN(C)CC1CCC/C(=C\c2ccc(OC(=O)/C=C/c3ccc(Cl)c(Cl)c3)cc2)C1=O (stereo unspecified)
Marked response: 26.2 µM

Exam item: Moving on to the next molecule: `COc1cccc(-c2nccc3c(OCc4ccccc4)c(OC)c(OC)cc23)c1`
Marked response: > 100 µM

Exam item: Can you handle `CC(=O)NC1(C(=O)N[C@@H](Cc2ccccc2)C(=O)NC2CCCCC2)Cc2ccc3ccccc3c2-c2c(ccc3ccccc23)C1` next?
Marked response: > 100 µM

Exam item: Same again, this time with NC(CC(O)(c1ccccc1)c1ccccc1)c1ccccc1S (stereo unspecified)
Marked response: 31.4 µM

Exam item: Consider next the molecule `COc1cc(F)c(/C=C/c2cc(/C=C/c3cc(OC)c(OC)cc3F)n(-c3cc(F)cc(F)c3)n2)cc1OC` in the same way.
Marked response: 11.4 µM

Exam item: Now try `NC(=Nc1ccccc1)c1ccccc1N` .
Marked response: > 100 µM

---

Test system: MCF7 breast
Assay: NCI tumour cell line growth inhibition, 48 h
Assignment: determine reported TGI for the given compounds.

Exam item: // map `CC(=O)Oc1cc(OC(C)=O)c2c(C)cc(=O)oc2c1` to recorded TGI (system: MCF7 breast)
Marked response: > 100 µM

Exam item: Consider next the compound Nc1nc(=O)n(C2OC(CO)C(O)C2O)c2ncc(-c3ccc(-c4ccccc4)cc3)nc12 (stereo unspecified) in the same way.
Marked response: > 100 µM

Exam item: Quick one: O=[N+]([O-])c1ccc(N2N=C(c3ccc4ccccc4c3O)CC2c2ccc(Cl)cc2)c([N+](=O)[O-])c1 (stereo unspecified)
Marked response: > 100 µM

Exam item: Okay, and `C[C@@H](COCCC(=O)N1CCN(c2ncc(C(F)(F)F)cn2)CC1)Nc1cn[nH]c(=O)c1C(F)(F)F` ?
Marked response: > 100 µM

Exam item: Can you check `CC(C)C[C@H](NC(=O)[C@H](Cc1cccc2ccccc12)NS(=O)(=O)c1cccc2cccnc12)B(O)O` next?
Marked response: > 30.5 µM

Exam item: Repeat with `COc1ccc(Cn2cc3c(c2-c2cc(OC)c(OC)c(OC)c2)CCc2cnoc2-3)cc1N`
Marked response: > 40 µM

Exam item: Entry `CNC1=C(C(=O)OC)SC(c2ccccc2)(c2ccccc2)SC1` please
Marked response: > 100 µM

Exam item: What about `O=[N+]([O-])c1ccc(O)c(/C=N/c2nc(-c3ccccc3)cs2)c1` ?
Marked response: > 100 µM

Exam item: Lookup COC(=O)C1=CON2C3CC4CC(C3)CC(C4)C12C (stereo unspecified)
Marked response: > 100 µM

Exam item: And then COC1(c2cccs2)c2ccccc2C(OC)(c2cccs2)c2ccccc21 (stereo unspecified) , what is it?
Marked response: > 100 µM

Exam item: How about `N=c1oc2ccccc2cc1-c1nc2ccccc2c(=O)[nH]1` ?
Marked response: > 100 µM
